Entry source: paper PMC8219104

Please go through the items and note down their koff.
# system: SARS-CoV-2 spike receptor-binding domain (RBD), amino acids 333 to 529, bacteria-expressed and refolded (SARS-CoV-2, UniProt P0DTC2 333-529)
# test_method_notes: SPR
Numeric only. Scale: s⁻¹

Recorded koff of Sybody Sb14 (VHH) VHH: QVQLVESGGGLVQAGGSLRLSCAASGFPVQAREMEWYRQAPGKEREWVAAIKSTGTYTAYAYSVKGRFTISRDNAKNTVYLQMNSLKPEDTAVYYCYVYVGSSYIGQGTQVTVSA , please.
0.007

Same for Sybody Sb68 (VHH) VHH: QVQLVESGGGSVQAGGSLRLSCAASGSISSITYLGWFRQAPGKEREGVAALITVNGHTYYADSVKGRFTVSLDNAKNTVYLQMNSLKPEDTALYYCAAAAWGYAWPLHQDDYWYWGQGTQVTVSA
0.023

Another: Sybody Sb16 (VHH) VHH: QVQLVESGGGLVQAGGSLRLSCAASGFPVAYKTMWWYRQAPGKEREWVAAIESYGIKWTRYADSVKGRFTISRDNAKNTVYLQMNSLKPEDTAVYYCIVWVGAQYHGQGTQVTVSA
0.02

Note, next up: Sybody Sb15 (VHH) VHH: QVQLVESGGGLVQAGGSLRLSCAASGFPVKNFEMEWYRKAPGKEREWVAAIQSGGVETYYADSVKGRFTISRDNAKNTVYLQMNSLKPEDTAVYYCFVYVGRSYIGQGTQVTVS
0.011
